- System: Candida albicans
- ASSAY METHOD TEXT: Antimicrobial activity against micafungin-resistant Candida albicans ATCC 76615R incubated for 24 hrs by two fold serial dilution method
- Assay type: functional
In this section, each of the molecules is paired with its reported MIC.
QUANTITY KIND: MIC (µg/mL)

MOLECULE	UNIT OF MEASURE	READING
O=C(c1cccc(F)c1)N1CCN(CC(=O)N2CCCC23Cc2ccccc2NC3=O)CC1 (stereo not given)	µg/mL	128
O=C(c1ccc(F)cc1)N1CCN(CC(=O)N2CCCC23Cc2ccccc2NC3=O)CC1 (stereo not given)	µg/mL	64
O=C(c1c(F)cccc1F)N1CCN(CC(=O)N2CCCC23Cc2ccccc2NC3=O)CC1 (stereo not given)	µg/mL	64
O=C(c1cc([N+](=O)[O-])ccc1Cl)N1CCN(CC(=O)N2CCCC23Cc2ccccc2NC3=O)CC1 (stereo not given)	µg/mL	32

---

# MIC listing for each entry below
- System: Aspergillus fumigatus
- ASSAY METHOD TEXT: Antimicrobial activity against Aspergillus fumigatus GIMCC 3.19 assessed as inhibition of cell wall synthesis in presence of sorbitol
- Format: functional
QUANTITY KIND: MIC (µg/mL)

COMPOUND	QUANTITY KIND	UNIT OF MEASURE	READING
O=C(c1cccc([N+](=O)[O-])c1)N1CCN(CC(=O)N2CCCC23Cc2ccccc2NC3=O)CC1 (stereo not drawn)	MIC	µg/mL	64
O=C(c1cccc(F)c1)N1CCN(CC(=O)N2CCCC23Cc2ccccc2NC3=O)CC1 (stereo not drawn)	MIC	µg/mL	128
NC(=O)OC[C@H](O)[C@@H](O)[C@H](N)C(=O)N[C@H](C(=O)O)[C@H]1O[C@@H](n2cc(CO)c(=O)[nH]c2=O)[C@H](O)[C@@H]1O [POLYOXIN B]	MIC	µg/mL	64

---

- Test system: Aspergillus fumigatus
- ASSAY METHOD TEXT: Antimicrobial activity against Aspergillus fumigatus GIMCC 3.19 incubated for 24 hrs by two fold serial dilution method
- Type: functional
Item-by-item account of log10 MIC
QUANTITY KIND: log10 MIC (log10 of the value in µg/mL)

COMPOUND	READING
O=C(c1ccc([N+](=O)[O-])cc1)N1CCN(CC(=O)N2CCCC23Cc2ccccc2NC3=O)CC1 (stereo not drawn)	0.00
O=C(c1ccccc1Cl)N1CCN(CC(=O)N2CCCC23Cc2ccccc2NC3=O)CC1 (stereo not drawn)	1.20
O=C(c1ccc(F)cc1)N1CCN(CC(=O)N2CCCC23Cc2ccccc2NC3=O)CC1 (stereo not drawn)	0.90
O=C(c1cccc([N+](=O)[O-])c1)N1CCN(CC(=O)N2CCCC23Cc2ccccc2NC3=O)CC1 (stereo not drawn)	0.90
O=C(c1cc([N+](=O)[O-])ccc1Cl)N1CCN(CC(=O)N2CCCC23Cc2ccccc2NC3=O)CC1 (stereo not drawn)	0.60
O=C(c1cccc(Br)c1)N1CCN(CC(=O)N2CCCC23Cc2ccccc2NC3=O)CC1 (stereo not drawn)	1.20
NC(=O)OC[C@H](O)[C@@H](O)[C@H](N)C(=O)N[C@H](C(=O)O)[C@H]1O[C@@H](n2cc(CO)c(=O)[nH]c2=O)[C@H](O)[C@@H]1O	0.90
O=C(c1ccccc1)N1CCN(CC(=O)N2CCCC23Cc2ccccc2NC3=O)CC1 (stereo not drawn)	1.51
